- test-system: T1, human ADAMTS5 (human, UniProt Q9UNA0 262-622, limits assumed)
- T1 construct: Octet and ELISA used 'recombinant human ADAMTS5'; also called recombinant human ADAMTS5; ADAMTS5 (R&D Systems 2198-AD)
- T1 sequence: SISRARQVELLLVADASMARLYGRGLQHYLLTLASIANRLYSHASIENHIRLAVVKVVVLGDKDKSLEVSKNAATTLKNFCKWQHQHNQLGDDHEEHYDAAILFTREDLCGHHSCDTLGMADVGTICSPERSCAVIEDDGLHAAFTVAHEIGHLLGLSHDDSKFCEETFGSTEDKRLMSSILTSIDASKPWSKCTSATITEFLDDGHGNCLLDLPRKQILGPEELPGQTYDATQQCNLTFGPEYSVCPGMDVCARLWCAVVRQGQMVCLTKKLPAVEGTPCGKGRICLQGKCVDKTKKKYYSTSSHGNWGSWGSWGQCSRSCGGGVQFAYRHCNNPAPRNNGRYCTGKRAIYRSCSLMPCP
- method-description: Biacore, mAb from culture supernatant captured on anti-human IgG, ADAMTS5 (R&D 2198-AD) at 64 nM, 1:1 fit
- Description: Anti-human IgG (Biacore™, BR-1008-39) was immobilized on a CM5 chip by primary amine coupling. This surface was then used to capture the humanized antibodies, ADAMTS5 (R&D Systems 2198-AD) was then passed over the captured antibody at a single concentration of 64 nM, regeneration was carried out using 100 mM phosphoric acid followed by 3M MgCl₂. The binding curves were double referenced with buffer injection (i.e. 0 nM) and the data was fitted to the T100 analysis software using the 1:1 model. […]
As shown below, each of these binders has a reported koff value.
Report only the number, with the unit s⁻¹ understood.

Please review the entries below; each comes with its answer.
1) BPC1647 (antibody, human IgG1, kappa, V domains shown, Humanized, human gamma 1 / kappa; also called 7B4 H6L1) VH: EVQLVESGGGLVQPGGSLRLSCAASGFTSSDAWMDWVRQAPGKGLEWVAEIRNKANNHARHYAESVKGRFTISRDDAKNSVYLQMNSLRAEDTAVYYCTRTYYYGSSYGYCDVWGQGTLVTVSS VL: DIQMTQSPSSLSASVGDRVTITCRTSENIYSYLAWYQQKPGKAPKLLVYNAKTLAEGVPSRFSGSGSGTDFTLTISSLQPEDFATYYCQHHYGTPWTFGQGTKLEIKR
0.00145
2) BPC1644 (antibody, human IgG1, kappa, V domains shown, Humanized, human gamma 1 / kappa; also called 7B4 H3L1) VH: EVQLVESGGGLVQPGGSLRLSCAASGFTSSDAWMDWVRQAPGKGLEWVAEIRNKANNHARHYAESVKGRFTISRDNAKNSLYLQMNSLRAEDTAVYYCTRTYYYGSSYGYCDVWGQGTLVTVSS VL: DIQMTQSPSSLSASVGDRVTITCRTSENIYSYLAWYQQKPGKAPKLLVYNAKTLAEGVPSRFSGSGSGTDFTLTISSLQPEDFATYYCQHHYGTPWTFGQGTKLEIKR
0.00157

Recorded koff for BPC1642 (antibody, human IgG1, kappa, V domains shown, Humanized, human gamma 1 / kappa; also called 7B4 H1L1) VH: EVQLVESGGGLVQPGGSLRLSCAASGFTFSDAWMDWVRQAPGKGLEWVAEIRNKANNHARHYAESVKGRFTISRDNAKNSLYLQMNSLRAEDTAVYYCTRTYYYGSSYGYCDVWGQGTLVTVSS VL: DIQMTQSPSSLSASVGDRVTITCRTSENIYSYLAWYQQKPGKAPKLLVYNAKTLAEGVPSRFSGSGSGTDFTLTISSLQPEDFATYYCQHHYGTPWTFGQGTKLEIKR , please?
0.00121

Reference source for all entries: patent US20120095193A1
